System: TTR
Experiment: TTR editing in primary cyno hepatocytes electroporated with Spy Cas9 protein and sgRNAs (Tables 14, 15)
Assay type: cell-based, cynomolgus monkey
Settings: Table 14; primary cyno hepatocytes electroporated with Spy Cas9 protein (RNP) and sgRNAs
Strand notation (5' to 3'): a small letter for the sugar, then the base; units joined by * are phosphorothioate-linked, units joined directly phosphodiester-linked; [ ] holds rarer units or linkages, { } end groups; capitals alone tell only the bases. m = 2'-O-methyl; r = 2'-OH (RNA)

>  <Molecule>
G000482: TTR sgRNA modified sequence, Human, SEQ ID No. 89; guide sequence of CR003365 (nucleic acid) guide: mU*mG*mU*rArGrArArGrGrGrArUrArUrArCrArArArGrGrUrUrUrUrArGrAmGmCmUmAmGmAmAmAmUmAmGmCrArArGrUrUrArArArArUrArArGrGrCrUrArGrUrCrCrGrUrUrArUrCrAmAmCmUmUmGmAmAmAmAmAmGmUmGmGmCmAmCmCmGmAmGmUmCmGmGmUmGmCmU*mU*mU*mU

>  <Avg % Edit (%)>
75.17

$$$$
